Target desc: baculovirus-expressed ALK (Homo sapiens)
Construct: host or cells: baculovirus expression system
Sequence (Q9UM73 19-1620): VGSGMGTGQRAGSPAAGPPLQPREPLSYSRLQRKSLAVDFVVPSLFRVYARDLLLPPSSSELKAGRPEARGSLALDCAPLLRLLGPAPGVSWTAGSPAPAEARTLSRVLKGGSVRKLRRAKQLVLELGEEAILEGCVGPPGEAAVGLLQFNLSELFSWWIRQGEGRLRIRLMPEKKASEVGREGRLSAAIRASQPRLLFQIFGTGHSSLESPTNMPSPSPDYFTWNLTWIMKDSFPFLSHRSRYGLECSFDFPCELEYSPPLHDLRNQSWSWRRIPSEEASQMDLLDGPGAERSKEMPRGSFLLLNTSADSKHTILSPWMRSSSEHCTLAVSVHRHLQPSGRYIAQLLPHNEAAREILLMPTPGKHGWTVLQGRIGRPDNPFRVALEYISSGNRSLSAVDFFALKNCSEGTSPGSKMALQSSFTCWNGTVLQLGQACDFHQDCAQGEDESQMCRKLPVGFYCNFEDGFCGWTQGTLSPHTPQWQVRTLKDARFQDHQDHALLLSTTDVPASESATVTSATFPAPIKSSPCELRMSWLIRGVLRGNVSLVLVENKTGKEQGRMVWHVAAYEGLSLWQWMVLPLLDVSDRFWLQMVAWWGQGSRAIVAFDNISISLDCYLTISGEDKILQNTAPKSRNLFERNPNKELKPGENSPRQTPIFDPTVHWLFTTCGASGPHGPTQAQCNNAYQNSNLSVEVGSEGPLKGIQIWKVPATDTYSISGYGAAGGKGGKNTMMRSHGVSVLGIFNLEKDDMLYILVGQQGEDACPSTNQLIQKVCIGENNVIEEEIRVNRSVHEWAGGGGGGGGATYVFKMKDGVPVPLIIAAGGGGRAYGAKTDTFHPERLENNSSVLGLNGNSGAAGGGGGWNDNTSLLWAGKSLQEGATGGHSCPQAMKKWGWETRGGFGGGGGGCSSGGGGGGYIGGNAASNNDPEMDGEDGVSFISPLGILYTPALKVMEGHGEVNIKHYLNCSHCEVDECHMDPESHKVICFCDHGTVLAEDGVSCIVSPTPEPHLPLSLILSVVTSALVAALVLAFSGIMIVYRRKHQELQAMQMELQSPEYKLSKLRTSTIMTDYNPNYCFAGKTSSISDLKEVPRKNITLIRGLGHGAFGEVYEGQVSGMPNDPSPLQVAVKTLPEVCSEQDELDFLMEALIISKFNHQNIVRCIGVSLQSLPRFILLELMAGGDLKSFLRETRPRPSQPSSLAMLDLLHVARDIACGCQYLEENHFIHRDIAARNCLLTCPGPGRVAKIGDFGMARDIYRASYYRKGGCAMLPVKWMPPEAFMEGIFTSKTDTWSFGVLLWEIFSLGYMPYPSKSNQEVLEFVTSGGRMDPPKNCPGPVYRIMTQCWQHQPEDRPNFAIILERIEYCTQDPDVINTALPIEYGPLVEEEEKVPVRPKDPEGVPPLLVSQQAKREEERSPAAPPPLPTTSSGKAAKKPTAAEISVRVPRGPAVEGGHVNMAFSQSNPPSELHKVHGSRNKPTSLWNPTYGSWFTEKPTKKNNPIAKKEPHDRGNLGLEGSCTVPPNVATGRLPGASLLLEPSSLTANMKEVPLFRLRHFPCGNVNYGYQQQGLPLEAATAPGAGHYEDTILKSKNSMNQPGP
Test protocol: ALK Kinase Assay (ELISA-type, time-resolved fluorescence)
Format: biochemical
Stated conditions: ALK kinase inhibition, 1 μM ATP; read-out: ALK Activity
Property: IC50

Example entries and their recorded answers appear below.
Cc1noc(-c2ccccc2Nc2nc(Nc3ccc4c(c3)CCOC(=O)N4C)ncc2Cl)n1
1000 to 10000 nM
CCN1CC(=O)Nc2cc(Nc3ncc(Cl)c(Nc4c(C)csc4C(=O)NC)n3)ccc2C1
100 to 1000 nM
C=CCOc1cccc(F)c1Nc1nc(Nc2ccc3c(c2)CCOC(=O)N3C)ncc1Cl
< 100 nM

## Task # get_value(readout='IC50', item= CCN1CC(=O)Nc2cc(Nc3ncc(Cl)c(N[C@H]4[C@@H](C(N)=O)[C@@H]5C=C[C@H]4C5)n3)c(OC)cc2C1 )
## Result < 100 nM
